measured_target: Human CD27, full length on the cell surface (human, UniProt P26842 21-260)
Sequence (P26842 21-260 H233R): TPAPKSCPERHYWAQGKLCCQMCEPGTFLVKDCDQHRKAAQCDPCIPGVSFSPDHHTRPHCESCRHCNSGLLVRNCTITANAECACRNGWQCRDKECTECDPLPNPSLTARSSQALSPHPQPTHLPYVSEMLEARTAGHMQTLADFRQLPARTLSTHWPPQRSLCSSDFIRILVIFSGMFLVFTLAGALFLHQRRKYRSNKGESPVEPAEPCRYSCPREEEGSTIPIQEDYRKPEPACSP
protocol_text: cell-based or functional assay
Give measured NFkB IC50 for each item. Keep answers brief.
Give bare numbers, in pM.

binder="M501 (antibody, IgG1, V domains shown, also called H231/L250) VH: QVQLVESGGGLVKPGGSLRLSCAASGFTFSSYSMSWIRQAPGKGLEWVSHIDAGGGRTWYPDSVKGRFTISRDNAKNSLYLQMNSLRAEDTAVYYCARHRGNPFDYWGQGTLVTVSS VL: DIQMTQSPSSLSASVGDRVTITCRASKSVSLDRWSFMHWYQQKPGKAPKLLIYLASNLESGVPSRFSGSGSGTDFTFTISSLQPEDIATYYCQHSRELPWTFGQGTKVEIK" val=4

# return NFkB IC50 for each item in the list
1. M526 (antibody, IgG1, V domains shown, also called H222/L249) VH: QVQLVESGGGLVKPGGSLRLSCAASGFTFSSYGMSWIRQAPGKGLEWVSYIDRGGGVTIYPDSVKGRFTISRDNAKNSLYLQMNSLRAEDTAVYYCARHRGNPFDYWGQGTLVTVSS VL: DIQMTQSPSSLSASVGDRVTITCRASKSVSEGRWSFMHWYQQKPGKAPKLLIYVASRLESGVPSRFSGSGSGTDFTFTISSLQPEDIATYYCQHSRELPWTFGQGTKVEIK
2. M488 (antibody, IgG1, V domains shown, also called H227/L249) VH: QVQLVESGGGLVKPGGSLRLSCAASGFTFSSYGMSWIRQAPGKGLEWVSYIDEGGGQTIYPDSVKGRFTISRDNAKNSLYLQMNSLRAEDTAVYYCARHRGNPFDYWGQGTLVTVSS VL: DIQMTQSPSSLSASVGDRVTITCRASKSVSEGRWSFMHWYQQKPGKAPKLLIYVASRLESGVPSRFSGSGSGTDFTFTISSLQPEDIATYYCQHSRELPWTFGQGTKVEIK

Found:
[6, 23]

meta.source: patent US20130243795A1
